# experimental_system: Glc(a1-4)Glc
# assay_details: glycan array binding signal (z-score within array); higher = stronger binding
# stated_conditions: glycan notation: IUPAC condensed, linker removed
The full list was thinned out, with the strongest signals kept by preference.
Collected glycan array binding signal (z-score) values appear next to each entry.
reported_endpoint: glycan array binding signal (z-score)

* RBMC1 (Vibrio cholerae) (protein) QQSQRVVTADNLMYLRSGFAIDAIGTTVNNLVGGPVQGTNGGVLRAPIALDQLQSVEVTSGLYNWGGYHIVAIKFTMKDGSSVLLGSTHYASNKKVETYTVPQGKRIKQINVWTGGWLVEGFQFVY | -0.216
* FaeGad (Escherichia coli) (protein) WMTGDFNGSVDIGGSITADDYRQKWEWEVGTGLNGFGSVLNDLTNGGTKLTITVTGNKPILLGRTKEAFATPVTSGVDGIPHIAFTDYEGASVELRNPDGETEKGLTYFVLPMKNAEGTKVGSVKVNASYAGALGRGGVTSADGELMSLFAEGSHAIFYGGLPTNVKNSELKGGSAAAARTELFGSLSKNDILGQIQRVNANITSLVNVPGSFNENMAYTDGSVVSVAYALGIANGQTIEATFNQAVTTSTQWSAPLNVAITYY | 9.55
* F17aG (Escherichia coli), Q99003 (protein) MTNFYKVFLAVFILVCCNISQAAVSFIGSTENDVGPSLGSYSRTHAMDNLPFVYDTRNKIGYQNANVWHISKGFCVGLDGKVDLPVVGSLDGQSIYGLTEEVGLLIWMGDTKYSRGTAMSGNSWENVFSGWCVGANTASTQGLSVRVTPVILKRNSSARYSVQKTSIGSIRMRPYNGSSAGSVQTTVNFSLNPFTLNDTVTSCRLLTPSAVNVSLAAISAGQLPSSGDEVVAGTTSLKLQCDAGVTVWATLTDATTPSNRSDILTLTGASTATGVGLRIYKNTDSTPLKFGPDSPVKGNENQWQLSTGTETSPSVRLYVKYVNTGEGINPGTVNGISTFTFSYQ | -0.243
